target: full-length activated BTK (wildtype) (Homo sapiens (Human)); assay: AlphaScreen assay, wild-type BTK
Sequence (Q06187 whole entry): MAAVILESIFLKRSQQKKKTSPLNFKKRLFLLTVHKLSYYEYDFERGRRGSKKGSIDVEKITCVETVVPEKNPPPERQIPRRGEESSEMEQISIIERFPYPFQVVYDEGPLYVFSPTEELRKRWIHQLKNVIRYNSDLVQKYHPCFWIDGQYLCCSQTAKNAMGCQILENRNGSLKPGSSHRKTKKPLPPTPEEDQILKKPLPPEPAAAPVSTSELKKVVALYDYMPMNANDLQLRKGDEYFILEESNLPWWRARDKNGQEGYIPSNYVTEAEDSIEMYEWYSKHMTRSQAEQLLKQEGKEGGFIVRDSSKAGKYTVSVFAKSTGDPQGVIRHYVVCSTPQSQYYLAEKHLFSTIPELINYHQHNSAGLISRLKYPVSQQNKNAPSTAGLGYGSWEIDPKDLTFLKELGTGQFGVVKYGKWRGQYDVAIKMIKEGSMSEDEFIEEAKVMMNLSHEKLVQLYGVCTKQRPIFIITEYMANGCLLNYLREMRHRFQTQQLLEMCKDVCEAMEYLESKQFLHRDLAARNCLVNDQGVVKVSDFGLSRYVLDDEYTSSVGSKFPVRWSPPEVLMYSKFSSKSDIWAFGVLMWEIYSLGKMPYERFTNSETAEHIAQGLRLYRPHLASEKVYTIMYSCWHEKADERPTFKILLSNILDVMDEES
READOUT_NAME: IC50 (nM)

Example entries begin here.
O=C(NCc1ccccc1)c1ccc(C(=O)c2c[nH]c3ncnc(N[C@@H]4CC[C@@H](CO)OC4)c23)c(Cl)c1 [Compound I-618] :: 87.4
O=C(Cc1ccccc1)Nc1ccc(C(=O)c2c[nH]c3ncnc(N[C@@H]4CC[C@@H](CO)OC4)c23)c(Cl)c1 [Compound I-639] :: 14.2

a: O=C(c1ccc(Oc2ccccc2)cc1Cl)c1c[nH]c2ncnc(NC[C@H]3CC[C@@H](CO)O3)c12 [Compound I-362e]
b: O=C(c1ccc(Oc2ccccc2)cc1Cl)c1c[nH]c2ncnc(NC3CCC(CO)NC3)c12 (racemic) [Compound I-343r]
c: COCCOc1ccc(C(=O)c2c[nH]c3ncnc(N[C@@H]4CC[C@@H](CO)OC4)c23)cc1 [Compound I-318i]
Please order the records by their reported IC50, lowest number first. Lab note: record answer as labels in requested order.
b, a, c
(b: 11 nM, a: 35.6 nM, c: 423 nM)

P: O=C(Nc1ccc(C(=O)c2c[nH]c3ncnc(N[C@@H]4CC[C@@H](CO)OC4)c23)c(Cl)c1)c1ccccc1 [Compound I-276]
Q: O=C(NCc1ccccc1)c1ccc(Cl)c(C(=O)c2c[nH]c3ncnc(N[C@@H]4CC[C@@H](CO)OC4)c23)c1 [Compound I-628]
When P and Q are compared, which has the higher number for IC50? Please respond with the label that marks your chosen entry.
Q

1: O=C(COCc1ccccc1)Nc1ccc(C(=O)c2c[nH]c3ncnc(N[C@@H]4CC[C@@H](CO)OC4)c23)c(Cl)c1 [Compound I-641]
2: N#Cc1cccc(NC(=O)c2ccc(Cl)c(C(=O)c3c[nH]c4ncnc(N[C@@H]5CC[C@@H](CO)OC5)c34)c2)c1 [Compound I-630]
3: COCCOc1ccc(C(=O)c2c[nH]c3ncnc(N[C@@H]4CC[C@@H](CO)OC4)c23)c(Cl)c1 [Compound I-317i]
4: CN1CCN(C(=O)c2ccc(Cl)c(C(=O)c3c[nH]c4ncnc(N[C@@H]5CC[C@@H](CO)OC5)c34)c2)CC1 [Compound I-622]
Please order the records by their reported IC50, lowest number first. Lab note: record answer as labels in requested order.
1, 2, 3, 4
(1: 8.28 nM, 2: 18.4 nM, 3: 40.7 nM, 4: 847 nM)

---

molecular target: full-length activated BTK mutant C481S (Homo sapiens (Human), UniProt Q06187, C481S); experiment: AlphaScreen assay, BTK mutant C481S; assay type: biochemical; conditions: read-out: BTK-C481S % @ 10 uM, @ 10 uM
Sequence (Q06187 whole entry C481S): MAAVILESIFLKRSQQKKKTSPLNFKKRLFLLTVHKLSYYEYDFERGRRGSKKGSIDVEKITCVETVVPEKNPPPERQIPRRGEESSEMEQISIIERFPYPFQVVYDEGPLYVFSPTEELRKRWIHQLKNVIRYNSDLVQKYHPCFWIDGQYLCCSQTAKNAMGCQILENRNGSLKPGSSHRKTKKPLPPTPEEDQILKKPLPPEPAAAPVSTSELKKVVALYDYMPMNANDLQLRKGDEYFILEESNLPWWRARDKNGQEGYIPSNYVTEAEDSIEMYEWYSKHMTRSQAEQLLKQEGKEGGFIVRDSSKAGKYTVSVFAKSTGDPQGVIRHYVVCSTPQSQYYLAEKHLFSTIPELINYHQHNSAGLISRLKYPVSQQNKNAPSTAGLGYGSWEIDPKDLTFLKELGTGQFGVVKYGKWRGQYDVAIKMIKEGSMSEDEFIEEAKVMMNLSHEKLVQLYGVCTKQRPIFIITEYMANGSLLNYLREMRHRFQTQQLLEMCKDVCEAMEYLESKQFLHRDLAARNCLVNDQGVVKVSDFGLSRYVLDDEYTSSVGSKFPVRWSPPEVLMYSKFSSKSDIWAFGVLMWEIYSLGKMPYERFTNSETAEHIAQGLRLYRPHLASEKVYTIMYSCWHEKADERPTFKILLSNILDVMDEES
READOUT_NAME: inhibition at 10 µM (%)

Example entries begin here.
O=C(c1ccc(N2CCOCC2)cc1Cl)c1c[nH]c2ncnc(N[C@@H]3CC[C@@H](CO)OC3)c12 [Compound I-311i] :: 81
Cn1cc(NC(=O)c2cccc(C(=O)c3c[nH]c4ncnc(N[C@@H]5CC[C@@H](CO)OC5)c34)c2)cn1 [Compound I-638] :: 54
CN1CCN(C(=O)c2ccc(C(=O)c3c[nH]c4ncnc(N[C@@H]5CC[C@@H](CO)OC5)c34)c(Cl)c2)CC1 [Compound I-620] :: 70

1: CN1CCN(C(=O)c2ccc(Cl)c(C(=O)c3c[nH]c4ncnc(N[C@@H]5CC[C@@H](CO)OC5)c34)c2)CC1 [Compound I-622]
2: COCCNC(=O)c1ccc(C(=O)c2c[nH]c3ncnc(N[C@@H]4CC[C@@H](CO)OC4)c23)cc1 [Compound I-636]
When 1 and 2 are compared, which has the higher number for inhibition at 10 µM? Please respond with the label that marks your chosen entry.
1
